Target: T1, His-tagged cynomolgus monkey B7-H3 (cynomolgus monkey)
T1 chain: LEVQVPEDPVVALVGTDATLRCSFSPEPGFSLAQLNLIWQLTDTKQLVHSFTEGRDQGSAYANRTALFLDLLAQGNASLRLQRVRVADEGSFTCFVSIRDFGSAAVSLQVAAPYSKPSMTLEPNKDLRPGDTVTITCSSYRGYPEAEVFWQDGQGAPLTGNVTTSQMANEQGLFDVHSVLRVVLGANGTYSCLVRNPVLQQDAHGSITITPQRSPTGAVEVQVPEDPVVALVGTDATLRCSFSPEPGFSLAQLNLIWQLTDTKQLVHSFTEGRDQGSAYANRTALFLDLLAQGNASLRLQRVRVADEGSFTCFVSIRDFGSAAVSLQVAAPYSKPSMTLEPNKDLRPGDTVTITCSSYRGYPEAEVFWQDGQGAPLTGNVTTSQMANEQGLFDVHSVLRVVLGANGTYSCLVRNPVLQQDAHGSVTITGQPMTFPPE
Assay: ELISA, coated His-tagged antigen, scFv-Fc 1 ug/ml
Recorded ELISA OD450 @ 1 ug/ml by entry
Answer in OD450, number only, no unit symbol.

>  <binder>
40511p1.2.G10 (scFv, V domains shown, Tested as scFv-Fc (Expi293 supernatant)) VH: DVQLVESGGGVVRPGESLRLSCAASGFTFSNYAMNWVRQAPGEGLEWVSRINYKGYNITYYADSVKGRFTISRDNSKNTLYLQMNSLRAEDTAVYYCAKSGSNSNNFFDYWGLGTLVTVSS VL: EIVLTQSPGTLSLSPGERATLSCRASQTVGSKLAWYQQKPGQAPRLLIYGASTRATDIPDRFSGSGSGTEFTLTISSLQSEDFAVYYCQQYINWPPLSFGGGTKVEIK

>  <property.name>
ELISA OD450 @ 1 ug/ml

>  <reported.measurement>
2.37

$$$$
>  <binder>
40511p1.1.G3 (scFv, V domains shown, Tested as scFv-Fc (Expi293 supernatant)) VH: DVQLVESGGGVVRPGESLTLSCAASGFTINSYAVSWVRQAPGEGLEWVSGISGSGVRYYADSVKGRFTISRDDSNNTLYLQMNSLRAEDTAVYYCARSNKVTWNNFFDYWGLGTLVTVSS VL: EVVLTQSPGTLTLSPGERATLSCRASRSILTSLAWYQQKPGQAPRLLIYNTVTRATGIPARFSGSGSGTEFTLTINSLQSEDFAVYYCQQYYDWPPLTFGGGTKVEIK

>  <property.name>
ELISA OD450 @ 1 ug/ml

>  <reported.measurement>
1.97

$$$$

Value of measured ELISA OD450 @ 1 ug/ml for the entry 40633p1.2.A8 (scFv, V domains shown, Tested as scFv-Fc (Expi293 supernatant)) VH: EVQLLESGGGLLQPGGSLRLSCAASGFSFSSYGMHWVRQAPGKGLEWVAAINSDGSRIYYADSVKGRFTISRDNSKNTLYLQMNSLRAEDTAVYYCTKYYYHYAMDVWGQGTTVTVSS VL: QSVLTQPPSASGTPGQRVTISCSGSRSDIGATTVNWYQQLPGTAPKLLIYQSHLRPSGVPDRFSGSKSGTSASLAISGLQSEDEADYYCASWDASLNTWVFGGGTKLTVL : 2.16
